Target: T1, HiBiT-tagged human FZD4 (human, UniProt Q9ULV1 37-537)
T1 construct: the receptor's own signal peptide is probably replaced; also called HiBiT-FZD4; WT FZD4; source: HEK293A, transiently transfected, on live cells; not shown: HiBiT, N-terminal, kept
T1 sequence (looked up): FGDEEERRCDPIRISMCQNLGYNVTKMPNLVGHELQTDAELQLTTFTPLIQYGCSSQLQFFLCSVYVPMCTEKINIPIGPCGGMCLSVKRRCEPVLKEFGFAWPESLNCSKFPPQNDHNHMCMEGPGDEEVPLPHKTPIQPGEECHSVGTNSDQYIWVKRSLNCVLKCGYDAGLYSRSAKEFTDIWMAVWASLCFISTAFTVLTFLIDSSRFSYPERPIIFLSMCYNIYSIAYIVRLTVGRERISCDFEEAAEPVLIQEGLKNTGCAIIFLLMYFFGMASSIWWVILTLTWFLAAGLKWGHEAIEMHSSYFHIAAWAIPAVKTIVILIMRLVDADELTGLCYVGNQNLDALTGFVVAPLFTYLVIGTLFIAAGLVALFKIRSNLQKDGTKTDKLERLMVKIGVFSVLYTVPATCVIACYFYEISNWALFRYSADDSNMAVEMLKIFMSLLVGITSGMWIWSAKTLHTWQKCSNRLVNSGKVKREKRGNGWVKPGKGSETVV
Assay: FRET or BRET; NanoBiT/BRET competition binding on live HEK293A cells with HiBiT-FZD4: 30 min preincubation with purified untagged WNT at 37 °C, then eGFP-WNT-3A to 0.4 nM for 240 min, then LgBiT and furimazine; pKi by Cheng-Prusoff
Conditions: one partner purified
Measured Metric: 0.4 nM eGFP-WNT-3A binding displaced (%)
Give the number; % is assumed, so skip it.

Binder	Measured Metric	Observed Value
untagged human WNT-11 (ligand, UniProt O96014 25-354, looked up, WNT-11, human, untagged recombinant protein; source: bought: RnD Systems/Biotechne, purified) IKWLALSKTPSALALNQTQHCKQLEGLVSAQVQLCRSNLELMHTVVHAAREVMKACRRAFADMRWNCSSIELAPNYLLDLERGTRESAFVYALSAAAISHAIARACTSGDLPGCSCGPVPGEPPGPGNRWGGCADNLSYGLLMGAKFSDAPMKVKKTGSQANKLMRLHNSEVGRQALRASLEMKCKCHGVSGSCSIRTCWKGLQELQDVAADLKTRYLSATKVVHRPMGTRKHLVPKDLDIRPVKDSELVYLQSSPDFCMKNEKVGSHGTQDRQCNKTSNGSDSCDLMCCGRGYNPYTDRVVERCHCKYHWCCYVTCRRCERTVERYVCK	0.4 nM eGFP-WNT-3A binding displaced (%)	58.4
untagged human/mouse WNT-5A (ligand, UniProt P41221 62-380, looked up, WNT-5A, printed as human/mouse, untagged recombinant protein; human WNT-5A is P41221; source: bought: RnD Systems/Biotechne, purified) IIGAQPLCSQLAGLSQGQKKLCHLYQDHMQYIGEGAKTGIKECQYQFRHRRWNCSTVDNTSVFGRVMQIGSRETAFTYAVSAAGVVNAMSRACREGELSTCGCSRAARPKDLPRDWLWGGCGDNIDYGYRFAKEFVDARERERIHAKGSYESARILMNLHNNEAGRRTVYNLADVACKCHGVSGSCSLKTCWLQLADFRKVGDALKEKYDSAAAMRLNSRGKLVQVNSRFNSPTTQDLVYIDPSPDYCVRNESTGSLGTQGRLCNKTSEGMDGCELMCCGRGYDQFKTVQTERCHCKFHWCCYVKCKKCTEIVDQFVCK	0.4 nM eGFP-WNT-3A binding displaced (%)	78.4

Turning to the following binder.
Q: Looking for the measured 0.4 nM eGFP-WNT-3A binding displaced (%) of untagged human WNT-3A (ligand, UniProt P56704 19-352, looked up, WNT-3A, human, untagged recombinant protein; source: bought: RnD Systems/Biotechne, purified) SYPIWWSLAVGPQYSSLGSQPILCASIPGLVPKQLRFCRNYVEIMPSVAEGIKIGIQECQHQFRGRRWNCTTVHDSLAIFGPVLDKATRESAFVHAIASAGVAFAVTRSCAEGTAAICGCSSRHQGSPGKGWKWGGCSEDIEFGGMVSREFADARENRPDARSAMNRHNNEAGRQAIASHMHLKCKCHGLSGSCEVKTCWWSQPDFRAIGDFLKDKYDSASEMVVEKHRESRGWVETLRPRYTYFKVPTERDLVYYEASPNFCEPNPETGSFGTRDRTCNVSSHGIDGCDLLCCGRGHNARAERRREKCRCVFHWCCYVSCQECTRVYDVHTCK , can you help?
A: 40.8
